- Target Or Test System: recombinant human IL-6 (human, UniProt P05231 30-212)
- Sequence (P05231 30-212 limits assumed): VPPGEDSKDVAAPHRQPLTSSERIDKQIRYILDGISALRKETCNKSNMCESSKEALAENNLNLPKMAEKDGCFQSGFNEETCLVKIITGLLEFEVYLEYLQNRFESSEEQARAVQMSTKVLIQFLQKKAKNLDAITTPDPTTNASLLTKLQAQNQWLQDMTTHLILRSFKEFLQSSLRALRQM
- Experiment: SPR, IL-6 on CM5 chip, Fab lysate, 25 C
Attribute Measured: koff (s⁻¹)

Binder: anti-IL-6 Fab, light chain S24V (Fab, V domains shown, see m39) VH: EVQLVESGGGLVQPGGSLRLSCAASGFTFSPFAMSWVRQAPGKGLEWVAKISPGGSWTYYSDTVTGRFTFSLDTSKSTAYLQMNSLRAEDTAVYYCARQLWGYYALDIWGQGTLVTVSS VL: DIQLTQSPSSLSASVGDRVTITCVASISVSYMYWYQQKPGKAPKLLIYDMSNLASGVPSRFSGSGSGTDFTLTISSLQPEDFATYYCMQWSGYPYTFGQGTKVEIK
Attribute Measured: koff
Test Value: 0.00416

Binder: anti-IL-6 Fab, light chain A54G (Fab, V domains shown, see m39) VH: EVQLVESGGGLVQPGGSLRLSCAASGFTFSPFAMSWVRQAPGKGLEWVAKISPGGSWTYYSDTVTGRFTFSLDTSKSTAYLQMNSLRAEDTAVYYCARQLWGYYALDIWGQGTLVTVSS VL: DIQLTQSPSSLSASVGDRVTITCSASISVSYMYWYQQKPGKAPKLLIYDMSNLGSGVPSRFSGSGSGTDFTLTISSLQPEDFATYYCMQWSGYPYTFGQGTKVEIK
Attribute Measured: koff
Test Value: 0.00498

Binder: anti-IL-6 Fab, light chain Y33F (Fab, V domains shown, see m39) VH: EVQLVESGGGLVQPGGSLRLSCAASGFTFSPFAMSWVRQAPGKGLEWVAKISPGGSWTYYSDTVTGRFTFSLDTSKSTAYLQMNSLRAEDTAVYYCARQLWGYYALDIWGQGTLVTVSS VL: DIQLTQSPSSLSASVGDRVTITCSASISVSYMFWYQQKPGKAPKLLIYDMSNLASGVPSRFSGSGSGTDFTLTISSLQPEDFATYYCMQWSGYPYTFGQGTKVEIK
Attribute Measured: koff
Test Value: 0.00618
